# System: M14 melanoma
# measurement description: NCI-60 one-dose screen, 48 h (100 = growth as untreated, 0 = no growth, -100 = all killed)
# assay context: 10 µM unless noted
# Description: Growth inhibition of the M14 human tumor cell line is measured as a screen for anti-cancer activity. Cells are grown in 96 well plates and exposed to the test compound for 48 hours. Compounds are tested at a single concentration, which is 10^-5 M for most compounds. The reported endpoint is percent growth (GI% or GIPRCNT), where numbers from 0 - 100% represent growth inhibition, and numbers from -100% - 0 represent cell death. For example, a value of 40 represents 60% growth inhibition. […]
Compounds without any hit were thinned out: in the full panel of roughly 83,000, 20% have a hit.
parameter: growth (%)

CN(C)CCCNC(=O)c1cncnc1Nc1ccc2c(ccn2Cc2cccc(F)c2)c1: 107
Cc1cn(C)cn1: 103
O=C(/C=C/c1ccco1)Nc1ncc(Cc2cc(Cl)ccc2Cl)s1: 6.81
Clc1cccc(C2Cc3cnccc3-c3[nH]c4ccncc4c32)c1 (stereo not given): 58.4
O=C(Nc1ncc(Cc2ccccc2)s1)c1sc2ccccc2c1Cl: 11.1
Cc1cc(O)cc(-c2nn(C)cc2-c2cc(N3CCOCC3)nc(-c3cccnc3)n2)c1: 28.4
COc1ccc(C(=O)/C=C/c2ccccc2)cc1S(N)(=O)=O: 82.8
CCN(CC)CCOc1ccc(/C(=C(\C)Cc2ccc(OC)cc2)c2ccc(OC(=O)NCc3ccccc3)cc2)cc1: -61.5
O=C(c1cccc(N2CCOCC2)n1)c1c[nH]c2ccccc12: 94.8
OC1(c2ccccc2)c2ccccc2N(c2ccccc2)c2ccc(Cl)cc21 (stereo not given): -79.5
C=C1SC(=Nc2ccccc2Cl)N(C(=O)c2sc3ccccc3c2Cl)C1(C)C: 86.6
CC(C)(Sc1cc(C(C)(C)C)c(O)c(C(C)(C)C)c1)Sc1cc(C(C)(C)C)c(OC(=O)CCC(=O)O)c(C(C)(C)C)c1: 50.9
Cn1cc(-c2csc(-c3cn(C)c4ccccc34)n2)c2cnccc21: -82.6
CN(C)c1ccc([C@@H](C(=O)Nc2cccc([N+](=O)[O-])c2)N(C(=O)c2cc3ccccc3[nH]2)c2cccc([N+](=O)[O-])c2)cc1: 93.7
COc1ccc(C(=O)Nc2ncc(Cc3ccc(Cl)cc3)s2)cc1: -29.4
N#Cc1c(-c2ccccc2)nc2c(c(-c3ccc(Cl)cc3)nn2-c2ccccc2)c1-c1ccc([N+](=O)[O-])cc1: 97.9
COC(=O)[C@]1(C)CCC[C@]2(C)[C@H]3C[C@@H]4[C@H]5[C@@H]6CC/C(=N\OCC/C(N)=N/O)[C@H]5[C@@]3(CC[C@H]21)CC4(C(C)C)O6: 72.6
Cc1[nH]n(-c2cccc(Cl)c2)c(=O)c1/C=C1\C=c2ccccc2=CC1=O: 18.2
CN1C(=O)N2CN3CCCN(C3)CN3C(=S)NC1C23 (stereo not given): 107
Ic1ccc(Nc2nc3nonc3nc2Nc2ccc(I)cc2)cc1: 2.71

====

# Test system: A498 renal
# measurement description: NCI-60 one-dose screen, 48 h
# assay context: 10 µM unless noted
Compounds without any hit were thinned out: in the full panel of roughly 83,000, 20% have a hit. Activity calls are given as the source filed them. The calls were made as follows: active = growth percent below 10; inactive = the rest.
Classes used: YES (active), NO (inactive)

COc1ccc2[nH]cc(-c3nonc3-c3c[nH]c4ccc(Br)cc34)c2c1: NO
CCCCCc1ccc(S(=O)(=O)Nc2ccc3nc(N)oc3c2)cc1: NO
COCCn1cc(-c2csc(-c3c[nH]c4ccccc34)n2)c2cccnc21: NO
CC(C)(Sc1cc(C(C)(C)C)c(O)c(C(C)(C)C)c1)Sc1cc(C(C)(C)C)c(OC(=O)CCC(=O)O)c(C(C)(C)C)c1: NO
COc1cc(/C=C2\C(=O)N(CCCOc3cc(O)c4c(=O)cc(-c5ccccc5)oc4c3)c3ccccc32)cc(OC)c1O: NO
CN1CCN(Cc2ccc(NC(=O)c3cncc(C#Cc4cnc(N)cc4C#N)c3)cc2C(F)(F)F)CC1: YES
COc1c2c(cc3c1C(=O)N[C@@H]1[C@@H](O)[C@@H](O)[C@H](O)C[C@@H]31)OCCO2: NO
COc1ccc(C(O)c2cc3c(N)c(C(=O)Nc4cccc5ccccc45)sc3nc2C)cc1 (centres undefined): YES
COc1ccc(-c2cc(C(=O)N3N=C(c4ccc(N)cc4)CC3c3ccc(Cl)cc3)c3ccccc3n2)cc1 (centres undefined): YES
